Reference source: patent US20250154198A1

Biological target: T1, human IL-23R endogenously expressed on DB cells (CRL-2289) (human, UniProt Q5VWK5 24-629)
T1 sequence (looked up): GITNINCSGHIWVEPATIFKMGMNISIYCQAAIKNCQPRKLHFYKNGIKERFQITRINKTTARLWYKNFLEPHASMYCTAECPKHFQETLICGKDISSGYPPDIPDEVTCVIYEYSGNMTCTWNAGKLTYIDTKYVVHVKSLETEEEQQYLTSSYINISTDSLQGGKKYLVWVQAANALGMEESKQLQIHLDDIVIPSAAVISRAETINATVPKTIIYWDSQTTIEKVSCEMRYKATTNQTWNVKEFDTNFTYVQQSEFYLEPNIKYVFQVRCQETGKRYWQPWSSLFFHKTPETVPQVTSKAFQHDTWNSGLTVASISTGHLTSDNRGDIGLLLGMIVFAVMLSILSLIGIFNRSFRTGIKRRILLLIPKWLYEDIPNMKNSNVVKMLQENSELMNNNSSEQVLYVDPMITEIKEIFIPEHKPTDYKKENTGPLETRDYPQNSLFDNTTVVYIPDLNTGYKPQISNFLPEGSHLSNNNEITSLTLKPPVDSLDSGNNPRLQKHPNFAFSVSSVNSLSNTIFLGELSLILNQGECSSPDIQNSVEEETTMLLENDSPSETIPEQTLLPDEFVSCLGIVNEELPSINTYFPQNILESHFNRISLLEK
Assay: cell-based or functional assay
*1 amine or outer side, *2 acyl side, *3 side chain or, on linkers, in order; H or OH if unused. Bridges are numbered along the chain shown (N, C = ends). Primed or numbered codes have the meaning given here. Where no end group is shown, it is not given here. [ ]: non-standard residue; d: D form. 4‑Aminomethyl‑phenylacetyl = 4-aminomethyl-phenylacetyl unit, its amine closes the lactam, O=C(Cc1ccc(CN[*:1])cc1)[*:2]; Q(pyrrolidin)″ = (2S)-2-amino-5-oxo-5-pyrrolidin-1-yl-pentanoic acid, O=C(CC[C@H](N[*:1])C(=O)[*:2])N1CCCC1; 1,3‑dibromopropan‑2‑one(3) = linker giving 1,3-dithio-propan-2-one bridge -SCH2C(=O)CH2S- between Cys; Trp(7-F) = N[C@@H](Cc1c[nH]c2c(F)cccc12)C(=O)O; Trp(1-Me) = Cn1cc(C[C@H](N)C(=O)O)c2ccccc21; 2Nal = N[C@@H](Cc1ccc2ccccc2c1)C(=O)O; AEF = NCCOc1ccc(C[C@H](N)C(=O)O)cc1; αMeL = CC(C)C[C@](C)(N)C(=O)O; CH2COCH2 = O=C(C[*:1])C[*:2]; 3Amb = NCc1cccc(C(=O)O)c1; Dab = NCC[C@H](N)C(=O)O

{"columns": ["Binder", "IC50 (pSTAT3), nM"],
 "data": [
  ["H-LCSCWQCWWLCR-NH2 (linker 2-11, 4-7 via CH2COCH2) [Compound 2]", 755],
  ["[4‑Aminomethyl‑phenylacetyl][Q(pyrrolidin)″]EWQ[Dab][AEF][2Nal][αMeL]E[Dab]-NH2 (lactam N-10, 3-6; SMILES CC(C)C[C@]1(C)NC(=O)[C@H](Cc2ccc3ccccc3c2)NC(=O)[C@H](Cc2ccc(OCCN)cc2)NC(=O)[C@@H]2CCNC(=O)CC[C@H](NC(=O)[C@H](CCC(=O)N3CCCC3)NC(=O)Cc3ccc(cc3)CNC(=O)CC[C@@H](C(=O)N[C@@H](CCN)C(N)=O)NC1=O)C(=O)N[C@@H](Cc1c[nH]c3ccccc13)C(=O)N[C@@H](CCC(N)=O)C(=O)N2) [Compound 145]", 22.7],
  ["Ac-KSC[Trp(1-Me)]QCW[2Nal]LER-NH2 (lactam 1-10; linker 3-6 via CH2COCH2; SMILES CC(=O)N[C@H]1CCCCNC(=O)CC[C@@H](C(=O)N[C@@H](CCCNC(=N)N)C(N)=O)NC(=O)[C@H](CC(C)C)NC(=O)[C@H](Cc2ccc3ccccc3c2)NC(=O)[C@H](Cc2c[nH]c3ccccc23)NC(=O)[C@@H]2CSCC(=O)CSC[C@H](NC(=O)[C@H](CO)NC1=O)C(=O)N[C@@H](Cc1cn(C)c3ccccc13)C(=O)N[C@@H](CCC(N)=O)C(=O)N2) [Compound 27]", 15.5],
  ["[4‑Aminomethyl‑phenylacetyl]SEW[Q(pyrrolidin)″][Dab][AEF][2Nal][αMeL]E[Dab]-NH2 (lactam N-10, 3-6; SMILES CC(C)C[C@]1(C)NC(=O)[C@H](Cc2ccc3ccccc3c2)NC(=O)[C@H](Cc2ccc(OCCN)cc2)NC(=O)[C@@H]2CCNC(=O)CC[C@H](NC(=O)[C@H](CO)NC(=O)Cc3ccc(cc3)CNC(=O)CC[C@@H](C(=O)N[C@@H](CCN)C(N)=O)NC1=O)C(=O)N[C@@H](Cc1c[nH]c3ccccc13)C(=O)N[C@@H](CCC(=O)N1CCCC1)C(=O)N2) [Compound 146]", 41.5],
  ["[3Amb]SCWQC[AEF][2Nal][αMeL]E[dR]-NH2 (lactam N-10; linker 3-6 via CH2COCH2) [Compound 41]", 29.4],
  ["[4‑Aminomethyl‑phenylacetyl]SCWQC[AEF][2Nal][αMeL]E[dQ]-NH2 (lactam N-10; linker 3-6 via 1,3‑dibromopropan‑2‑one(3)) [Compound 115]", 18.9],
  ["[3Amb]SCWQCW[2Nal]LER-NH2 (lactam N-10; linker 3-6 via CH2COCH2) [Compound 37]", 44.6],
  ["[3Amb]SCWQC[AEF][2Nal][αMeL]ER[3‑Amino‑3‑(3'-pyridyl)propionyl]-NH2 (lactam (positions not given here); linker 3-6 via 1,3‑dibromopropan‑2‑one(3); not fully specified (bridges); printed as [(3-Aminomethyl)benzoyl](1c)*SC(2a)WQC(2a)][Y(2-aminoethoxy)][2-Nal][2-Me-Leu]E(1c)R[3-Amino-3-(3′-pyridyl)propionyl]-[NH2]) [Compound 151]", 10.7],
  ["[4‑Aminomethyl‑phenylacetyl]SE[Trp(7-F)]Q[Dab][AEF][2Nal][αMeL]E[Dab]-NH2 (lactam N-10, 3-6; SMILES CC(C)C[C@]1(C)NC(=O)[C@H](Cc2ccc3ccccc3c2)NC(=O)[C@H](Cc2ccc(OCCN)cc2)NC(=O)[C@@H]2CCNC(=O)CC[C@H](NC(=O)[C@H](CO)NC(=O)Cc3ccc(cc3)CNC(=O)CC[C@@H](C(=O)N[C@@H](CCN)C(N)=O)NC1=O)C(=O)N[C@@H](Cc1c[nH]c3c(F)cccc13)C(=O)N[C@@H](CCC(N)=O)C(=O)N2) [Compound 139]", 30.2]
]}
